- MEASURED TARGET: human GPR119 (Homo sapiens)
- TEST: Functional cellular assay measuring GPR119-mediated cAMP release (HTRF) in HEK-293 cells stably expressing recombinant GPR119
- CONDITION DESCRIPTION: cell line expressing human GPR119, 30 minutes at room temperature
- Method: Functional Cellular Assays Measuring GPR119-mediated cAMP Release Compounds of the present disclosure, which are agonists of GPR119, were characterized by functional assays measuring the cAMP response of HEK-293 cell lines stably expressing recombinant GPR119 from man, mouse or rat, or by using the hamster cell line HIT-T15 expressing GPR119 endogenously. The cAMP content was determined using a kit based on homogenous time-resolved fluorescence (HTRF) from Cisbio Corp. (cat. no. 62AM4PEC). […]
pEC50: −log10 of the molar value.
MEASURED ATTRIBUTE: pEC50

CN(C)C(=O)C1CN(c2ncc(N3CC[C@@H](Oc4ccc(C(=O)C5CC5)c(F)c4)C3=O)cn2)C1    6.89

[a] N#Cc1cc(N2CC[C@@H](Oc3ccc(Oc4ccc(F)cc4)nc3)C2=O)cnc1N1CC(O)C1
[b] CNC(=O)C1CN(c2ccc(N3CC[C@@H](Oc4ccc(OCC(F)(F)F)nc4)C3=O)cn2)C1
Of a and b , whose reported pEC50 is the larger number? Field: selected label. Fill in the label of the entry you choose.
b
(b: 7.06, a: 6.59)

[a] CC(=O)N1CCN(C(=O)C2CN(c3ncc(N4CC[C@@H](Oc5ccc(Oc6ccc(F)cc6)nc5)C4=O)cn3)C2)CC1
[b] CNCCOC(=O)C1CN(c2ncc(N3CC[C@@H](Oc4ccc(OCC(F)(F)F)nc4)C3=O)cn2)C1
[c] CN(C)C(=O)C1CN(c2ncc(N3CC[C@@H](Oc4ccc(OCC(F)(F)F)nc4)C3=O)cc2C#N)C1
List the 3 entries from lowest pEC50 to highest pEC50 value. As an answer, provide the labels arranged in the order called for.
a, b, c
(a: 5.89, b: 6.67, c: 7.19)

###

- MEASURED TARGET: human GPR119 (Homo sapiens, UniProt Q8TDV5)
- Sequence (Q8TDV5 1-335): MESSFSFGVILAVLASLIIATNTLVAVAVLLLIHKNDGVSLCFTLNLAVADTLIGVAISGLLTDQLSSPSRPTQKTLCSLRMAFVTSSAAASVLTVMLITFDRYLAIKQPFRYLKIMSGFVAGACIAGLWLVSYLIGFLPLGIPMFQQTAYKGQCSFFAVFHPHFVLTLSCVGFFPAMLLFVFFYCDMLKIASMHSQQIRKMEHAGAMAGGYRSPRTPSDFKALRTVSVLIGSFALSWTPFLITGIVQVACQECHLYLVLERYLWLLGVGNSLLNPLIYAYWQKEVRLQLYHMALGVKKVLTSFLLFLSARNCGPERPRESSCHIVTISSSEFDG
- TEST: Functional cellular assay measuring GPR119-mediated cAMP release (HTRF) in HEK-293 cells stably expressing recombinant GPR119
- CONDITION DESCRIPTION: cell line expressing human GPR119, 30 minutes at room temperature
MEASURED ATTRIBUTE: EC50 (nM)

Example compounds with recorded EC50:
O=C(O)C1CN(c2ncc(N3CC[C@@H](Oc4ccc(OCC5CC5)nc4)C3=O)cn2)C1    4920
CN(C)C(=O)C1CN(c2ncc(N3CC[C@H](Oc4ccc(OCC(F)(F)F)nc4)C3=O)cn2)C1    257

[1] CS(=O)(=O)C1CN(c2ncc(N3CC[C@@H](Oc4ccc(C(=O)C5CC5)nc4)C3=O)cn2)C1
[2] CS(=O)(=O)C1CN(c2ncc(N3CCC(Cc4ccc(C(=O)C5CC5)cc4)C3=O)cn2)C1 (stereo not shown)
[3] COC(=O)C1CN(c2ccc(N3CC[C@@H](Oc4ccc(OCC5CC5)nc4)C3=O)cn2)C1
[4] CN(C)C(=O)C1CN(c2ncc(N3CC(C)(C)C(Oc4ccc(C(=O)C5CC5)nc4)C3=O)cn2)C1 (stereo not shown)
List the 4 entries from lowest EC50 to highest EC50 value. As an answer, provide the labels arranged in the order called for.
3, 2, 1, 4
(3: 30 nM, 2: 195 nM, 1: 664 nM, 4: 1360 nM)

###

- MEASURED TARGET: human GPR119 (Homo sapiens, UniProt Q8TDV5)
- TEST: Functional cellular assay measuring GPR119-mediated cAMP release (HTRF) in HEK-293 cells stably expressing recombinant GPR119
- CONDITION DESCRIPTION: cell line expressing human GPR119, 30 minutes at room temperature
pEC50: −log10 of the molar value.
MEASURED ATTRIBUTE: pEC50

Example compounds with recorded pEC50:
CN(C)C(=O)C1CN(c2ncc(N3CCC(Cc4ccc(OCC(F)(F)F)nc4)C3=O)cn2)C1 (single isomer, unassigned) [Compound 1-42]    6.80
CS(=O)(=O)C1CN(c2ncc(N3CC[C@H](Oc4ccc(OCC(F)(F)F)nc4)C3=O)cn2)C1 [Compound 1-50]    6.49
CN(C)C(=O)C1CN(c2ncc(N3CC[C@@H](Oc4ccc(OCC5CC5)nc4)C3=O)cc2C#N)C1 [Compound 1-05]    7.21
N#Cc1cc(N2CC[C@@H](Oc3ccc(OCC4CC4)nc3)C2=O)cnc1N1CC(O)C1 [Compound 1-01]    7.24
CNC(=O)C1CN(c2ncc(N3CC[C@@H](Oc4ccc(Oc5ccc(F)cc5)nc4)C3=O)cn2)C1 [Compound 4-01]    5.69
CN(C)C(=O)C1CN(c2ncc(N3CC(C)(C)C(Oc4ccc(OCC(F)(F)F)cc4)C3=O)cn2)C1 (stereo not drawn) [Compound 1-19]    6.74
O=C1[C@H](Oc2ccc(OCC(F)(F)F)nc2)CCN1c1cnc(N2CC(N3CCCC3=O)C2)nc1 [Compound 1-34]    6.43
CN(C)C(=O)C1CN(c2ncc(N3CC[C@@H](Oc4ccc(C(=O)C5CC(F)(F)C5)cc4)C3=O)cn2)C1 [Compound 2-08]    6.65

[I] O=C1[C@H](Oc2ccc(OCC3CC3)nc2)CCN1c1cnc(N2CC(O)C2)c(F)c1 [Compound 1-02]
[II] CN(C)C(=O)C1CN(c2ncc(N3CC[C@@H](Oc4ccc(Oc5ccc(F)cc5)nc4)C3=O)cc2C#N)C1 [Compound 1-08]
Decide: I or II , by lowest recorded pEC50. Field: selected label. Fill in the label of the entry you choose.
I

[I] O=C(NCO)C1CN(c2ccc(N3CC[C@@H](Oc4ccc(OCC(F)(F)F)nc4)C3=O)cn2)C1 [Compound 5-04]
[II] C[S+]([O-])C1CN(c2ncc(N3CCC(Cc4ccc(OCC(F)(F)F)nc4)C3=O)cn2)C1 (single isomer, unassigned) [Compound 1-47]
Of I and II , whose reported pEC50 is the larger number? Field: selected label. Fill in the label of the entry you choose.
I

[A] O=C(NCCO)C1CN(c2ncc(N3CC[C@@H](Oc4ccc(Oc5ccc(F)cc5)nc4)C3=O)cn2)C1 [Compound 4-12]
[B] CN(C)C(=O)C1CN(c2ncc(N3CC[C@@H](Oc4ccc(Oc5ccc(F)cc5)nc4)C3=O)cn2)C1 [Compound 1-23]
Decide: A or B , by lowest recorded pEC50. Field: selected label. Fill in the label of the entry you choose.
A

[P] C[S+]([O-])C1CN(c2ncc(N3CC[C@@H](Oc4ccc(OCC(F)(F)F)nc4)C3=O)cn2)C1 (stereo partly drawn) [Compound 1-15]
[Q] CS(=O)(=O)C1CN(c2ncc(N3CCC(Cc4ccc(OCC(F)(F)F)nc4)C3=O)cn2)C1 (single isomer, unassigned) [Compound 1-43]
Decide: P or Q , by lowest recorded pEC50. Field: selected label. Fill in the label of the entry you choose.
P

###

- MEASURED TARGET: human GPR119 (Homo sapiens, UniProt Q8TDV5)
- Sequence (Q8TDV5 1-335): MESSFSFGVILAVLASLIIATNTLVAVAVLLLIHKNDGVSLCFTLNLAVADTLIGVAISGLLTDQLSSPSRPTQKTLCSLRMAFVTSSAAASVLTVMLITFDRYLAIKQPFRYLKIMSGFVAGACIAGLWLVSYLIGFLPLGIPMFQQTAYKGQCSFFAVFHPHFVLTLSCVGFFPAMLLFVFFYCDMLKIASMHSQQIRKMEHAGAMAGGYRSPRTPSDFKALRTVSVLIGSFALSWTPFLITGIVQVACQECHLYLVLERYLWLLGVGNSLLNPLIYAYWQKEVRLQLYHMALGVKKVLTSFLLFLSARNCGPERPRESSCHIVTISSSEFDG
- TEST: Functional cellular assay measuring GPR119-mediated cAMP release (HTRF) in HEK-293 cells stably expressing recombinant GPR119
- CONDITION DESCRIPTION: cell line expressing human GPR119, 30 minutes at room temperature
pEC50: −log10 of the molar value.
MEASURED ATTRIBUTE: pEC50

CN(C)C(=O)C1CN(c2ncc(N3CC[C@@H](Oc4ccc(C(=O)C5CC(F)(F)C5)nc4)C3=O)cn2)C1 [Compound 2-11]    6.33

[I] CC(=O)NC1CN(c2ncc(N3CC[C@@H](Oc4ccc(OCC(F)(F)F)nc4)C3=O)cn2)C1 [Compound 4-24]
[II] CN(C)C(=O)C1CN(c2ccc(N3CC[C@H](Oc4ccc(OCC(F)(F)F)nc4)C3=O)cn2)C1 [Compound 1-11]
[III] CN(C)C(=O)C1CN(c2ncc(N3CC(C)(C)C(Oc4ccc(C(=O)C5CC5)cc4)C3=O)cn2)C1 (centres unmarked) [Compound 1-48]
[IV] COC(=O)C1CN(c2ccc(N3CC[C@@H](Oc4ccc(OCC(F)(F)F)nc4)C3=O)cn2)C1 [Compound 1-52]
List the 4 entries from lowest pEC50 to highest pEC50 value. As an answer, provide the labels arranged in the order called for.
I, III, II, IV
